Data provenance: PubChem BioAssay

# measurement-protocol: yeast V-ATPase proton transport modulators, S. cerevisiae, pHLuorin, HTS validation (AID 504600);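 also: plate controls were DMSO for no effect and reference compound for full effect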
# protocol-conditions: S. cerevisiae pHLuorin cytosolic pH, at 10 µM, hits give high values
Calls of active or inactive are those of the source. Rule as the data show it: active = response above about 15%; inactive = the rest.
Form field: response (one value per entry).

molecule: O=C(NCCc1nc2ccccc2[nH]1)c1cccc(Br)c1
response: 3.78% (inactive)

molecule: COc1ccc(C2(CCN=Cc3ccc(N(C)C)cc3)CCOC(C)(C)C2)cc1 (stereo unspecified)
response: -4.5% (inactive)

molecule: COc1ccc2oc(=O)c(-c3nc(C)cs3)cc2c1
response: -3.63% (inactive)

molecule: CCN(CC)C(=S)SSC(=S)N(CC)CC
response: -29.5% (inactive)

molecule: COc1ccc(NC(=O)C2C(=O)N(CCO)C3(C)CC2c2ccccc2O3)cc1 (stereo unspecified)
response: -0.98% (inactive)

// switching to the query molecule
Sample Cn1c(=O)[nH]c(=O)c2c1nc(Br)n2CCCO — what was its response?
0.07% (inactive)
